procedure-details: Stability of mRNA-LNPs according to storage temperature and duration
Type: physicochemical
run-conditions: fLuc mRNA-LNP stored at 25° C., day 1
reported-endpoint: PDI D-1
Please respond with just the number, no unit label.

>  <molecule>
CCCCCCCCCCCOC(=O)CCCCCN(CCCCCCCC(=O)OC(CCCCCCCC)CCCCCCCC)CC(O)CCCCNC(=O)c1cncn1C (stereo not drawn) [Compound 38]

>  <reported-endpoint>
PDI D-1

>  <reading>
0.132

$$$$

Now for the molecule whose PDI D-1 we want.
[ask] Give a short answer stating reported PDI D-1 for CCCCCCCCCCCOC(=O)CCCCCN(CCCCCCCC(=O)OC(CCCCCCCC)CCCCCCCC)CC(O)CCCCNC(=O)c1nccn1C (stereo not drawn) [Compound 36] .
[reply] 0.073

====

Examples of compounds with documented EE (%) follow.
procedure-details: mRNA encapsulation efficiency (Quant-IT RiboGreen RNA assay)
Type: physicochemical
run-conditions: mRNA encapsulation efficiency of mRNA-LNP made with the ionizable lipid; average of two measurements
The figure you give is taken to be in %; do not add the unit.

Completed entries (count: 2):
>  <compound>
CCCCCCCCCCCOC(=O)CCCCCN(CCCCCCCC(=O)OC(CCCCCCCC)CCCCCCCC)CC(O)CCCCNC(=O)c1c[nH]c(O)n1 (stereo not drawn)

>  <reported-endpoint>
EE (%)

>  <reading>
90

$$$$
>  <compound>
CCCCCCCCCCCOC(=O)CCCCCN(CCCCCCCC(=O)OC(CCCCCCCC)CCCCCCCC)CC(O)CCCCNC(=O)c1c[nH]cn1 (stereo not drawn)

>  <reported-endpoint>
EE (%)

>  <reading>
94

$$$$

Now for the compound whose EE (%) we want.
[ask] Give a short answer stating reported EE (%) for CCCCCCCCCCCOC(=O)CCCCCN(CCCCCCCC(=O)OC(CCCCCCCC)CCCCCCCC)CC(O)CCCCNC(=O)c1cncn1C (stereo not drawn) .
[reply] 88

====

procedure-details: Stability of mRNA-LNPs according to storage temperature and duration
Type: physicochemical
run-conditions: fLuc mRNA-LNP stored at 25° C., day 1
Classify as follows. Reported Normalized EE % D-1 greater than or equal to 90%: MET. Reported Normalized EE % D-1 below: NOT MET.

Example entries begin here.
>  <compound>
CCCCCCCCCCCOC(=O)CCCCCN(CCCCCCCC(=O)OC(CCCCCCCC)CCCCCCCC)CC(O)CCCCNC(=O)c1c[nH]cn1 (stereo not shown) [Compound 34]

>  <assigned-category>
MET

$$$$
>  <compound>
CCCCCCCCCCCOC(=O)CCCCCN(CCCCCCCC(=O)OC(CCCCCCCC)CCCCCCCC)CC(O)CCCCNC(=O)c1cc[nH]c1 (stereo not shown) [Compound 17]

>  <assigned-category>
MET

$$$$
>  <compound>
CCCCC/C=C\C/C=C\CCCCCCCCC(CCCCCCCC/C=C\C/C=C\CCCCC)OC(=O)CCCN(C)C [MC3, DLin-MC3-DMA, reference compound]

>  <assigned-category>
MET

$$$$
>  <compound>
CCCCCCCCCCCOC(=O)CCCCCN(CCCCCCCC(=O)OC(CCCCCCCC)CCCCCCCC)CC(O)CCCCNC(=O)c1nccn1C (stereo not shown) [Compound 36]

>  <assigned-category>
NOT MET

$$$$

API: the following record is the query input.
[ask] # check: Normalized EE % D-1 of CCCCCCCCCCCOC(=O)CCCCCN(CCCCCCCC(=O)OC(CCCCCCCC)CCCCCCCC)CC(O)CCCCNC(=O)c1ccn(C)c1 (stereo not shown) [Compound 19] is greater than or equal to 90%
[reply] MET

====

System: IL-1β mRNA level in HEK-293T cells
run-conditions: human
Examples of compounds with documented IL-1β Average follow.
Please respond with just the number, no unit label.

Completed entries (count: 2):
>  <compound>
CCCCCCCCCCCOC(=O)CCCCCN(CCCCCCCC(=O)OC(CCCCCCCC)CCCCCCCC)CC(O)CCCCNC(=O)c1[nH]ccc1O (stereo not drawn) [Compound 21]

>  <IL-1β Average>
1.18

$$$$
>  <compound>
CCCCCCCCCCCOC(=O)CCCCCN(CCCCCCCC(=O)OC(CCCCCCCC)CCCCCCCC)CC(O)CCCCNC(=O)c1ccc[nH]1 (stereo not drawn) [Compound 16]

>  <IL-1β Average>
0.74

$$$$

Now for the compound whose IL-1β Average we want.
[ask] Give a short answer stating reported IL-1β Average for CCCCCCCCCCCOC(=O)CCCCCN(CCCCCCCC(=O)OC(CCCCCCCC)CCCCCCCC)CC(O)CCCCNC(=O)c1ccn(C)c1 (stereo not drawn) [Compound 19] .
[reply] 1.07

====

Examples of compounds with documented EE (%) follow.
procedure-details: mRNA encapsulation efficiency (Quant-IT RiboGreen RNA assay)
Format: physicochemical
run-conditions: mRNA encapsulation efficiency of mRNA-LNP made with the ionizable lipid; average of two measurements
The figure you give is taken to be in %; do not add the unit.

Completed entries (count: 5):
>  <compound>
CCCCCCCCCCCOC(=O)CCCCCN(CCO)CCCCCCCC(=O)OC(CCCCCCCC)CCCCCCCC [SM-102, reference compound]

>  <EE (%)>
94

$$$$
>  <compound>
CCCCCCCCCCCOC(=O)CCCCCN(CCCCCCCC(=O)OC(CCCCCCCC)CCCCCCCC)CC(O)CCCCNC(=O)c1nccn1C (stereo not drawn)

>  <EE (%)>
87

$$$$
>  <compound>
CCCCCCCCCCCOC(=O)CCCCCN(CCCCCCCC(=O)OC(CCCCCCCC)CCCCCCCC)CC(O)CCCCNC(=O)c1ccc[nH]1 (stereo not drawn)

>  <EE (%)>
91

$$$$
>  <compound>
CCCCCCCCCCCOC(=O)CCCCCN(CCCCCCCC(=O)OC(CCCCCCCC)CCCCCCCC)CC(O)CCCCNC(=O)c1cccn1C (stereo not drawn)

>  <EE (%)>
88

$$$$
>  <compound>
CCCCCCCCCCCOC(=O)CCCCCN(CCCCCCCC(=O)OC(CCCCCCCC)CCCCCCCC)CC(O)CCCCNC(=O)c1cnc(O)n1C (stereo not drawn)

>  <EE (%)>
92

$$$$

Now for the compound whose EE (%) we want.
[ask] Give a short answer stating reported EE (%) for CCCCC/C=C\C/C=C\CCCCCCCCC(CCCCCCCC/C=C\C/C=C\CCCCC)OC(=O)CCCN(C)C [MC3, DLin-MC3-DMA, reference compound] .
[reply] 95

====

procedure-details: Stability of mRNA-LNPs according to storage temperature and duration
Assay type: physicochemical
run-conditions: fLuc mRNA-LNP stored at 4° C., day 30
reported-endpoint: Size (nm) D-30
The figure you give is taken to be in nm; do not add the unit.

Completed entries (count: 10):
>  <compound>
CCCCCCCCCCCOC(=O)CCCCCN(CCCCCCCC(=O)OC(CCCCCCCC)CCCCCCCC)CC(O)CCCCNC(=O)c1cccn1C (stereo not drawn)

>  <Size (nm) D-30>
126.6

$$$$
>  <compound>
CCCCCCCCCCCOC(=O)CCCCCN(CCCCCCCC(=O)OC(CCCCCCCC)CCCCCCCC)CC(O)CCCCNC(=O)c1ccn(C)c1 (stereo not drawn)

>  <Size (nm) D-30>
177.4

$$$$
>  <compound>
CCCCCCCCCCCOC(=O)CCCCCN(CCCCCCCC(=O)OC(CCCCCCCC)CCCCCCCC)CC(O)CCCCNC(=O)c1cn(C)cn1 (stereo not drawn)

>  <Size (nm) D-30>
138.7

$$$$
>  <compound>
CCCCCCCCCCCOC(=O)CCCCCN(CCCCCCCC(=O)OC(CCCCCCCC)CCCCCCCC)CC(O)CCCCNC(=O)c1c[nH]cn1 (stereo not drawn)

>  <Size (nm) D-30>
164.4

$$$$
>  <compound>
CCCCCCCCCCCOC(=O)CCCCCN(CCCCCCCC(=O)OC(CCCCCCCC)CCCCCCCC)CC(O)CCCCNC(=O)c1cncn1C (stereo not drawn)

>  <Size (nm) D-30>
147.3

$$$$
>  <compound>
CCCCCCCCCCCOC(=O)CCCCCN(CCCCCCCC(=O)OC(CCCCCCCC)CCCCCCCC)CC(O)CCCCNC(=O)c1c[nH]c(O)n1 (stereo not drawn)

>  <Size (nm) D-30>
141.3

$$$$
>  <compound>
CCCCCCCCCCCOC(=O)CCCCCN(CCCCCCCC(=O)OC(CCCCCCCC)CCCCCCCC)CC(O)CCCCNC(=O)c1nccn1C (stereo not drawn)

>  <Size (nm) D-30>
120.9

$$$$
>  <compound>
CCCCC/C=C\C/C=C\CCCCCCCCC(CCCCCCCC/C=C\C/C=C\CCCCC)OC(=O)CCCN(C)C [MC3, DLin-MC3-DMA, reference compound]

>  <Size (nm) D-30>
125.6

$$$$
>  <compound>
CCCCCCCCCCCOC(=O)CCCCCN(CCCCCCCC(=O)OC(CCCCCCCC)CCCCCCCC)CC(O)CCCCNC(=O)c1ncc[nH]1 (stereo not drawn)

>  <Size (nm) D-30>
115.6

$$$$
>  <compound>
CCCCCCCCCCCOC(=O)CCCCCN(CCCCCCCC(=O)OC(CCCCCCCC)CCCCCCCC)CC(O)CCCCNC(=O)c1cnc(O)n1C (stereo not drawn)

>  <Size (nm) D-30>
146.2

$$$$

[ask] Give a short answer stating reported Size (nm) D-30 for CCCCCCCCCCCOC(=O)CCCCCN(CCCCCCCC(=O)OC(CCCCCCCC)CCCCCCCC)CC(O)CCCCNC(=O)c1cc[nH]c1 (stereo not drawn) .
[reply] 130.7

[ask] Give a short answer stating reported Size (nm) D-30 for CCCCCCCCCCCOC(=O)CCCCCN(CCCCCCCC(=O)OC(CCCCCCCC)CCCCCCCC)CC(O)CCCCNC(=O)c1ccc[nH]1 (stereo not drawn) .
[reply] 141.5
